In this section, each of the molecules is paired with its reported SI, selectivity index (COX-1 IC50/COX-2 IC50).
- system-under-test: COX-2 (Ovis aries)
- Sequence (P79208 17-603): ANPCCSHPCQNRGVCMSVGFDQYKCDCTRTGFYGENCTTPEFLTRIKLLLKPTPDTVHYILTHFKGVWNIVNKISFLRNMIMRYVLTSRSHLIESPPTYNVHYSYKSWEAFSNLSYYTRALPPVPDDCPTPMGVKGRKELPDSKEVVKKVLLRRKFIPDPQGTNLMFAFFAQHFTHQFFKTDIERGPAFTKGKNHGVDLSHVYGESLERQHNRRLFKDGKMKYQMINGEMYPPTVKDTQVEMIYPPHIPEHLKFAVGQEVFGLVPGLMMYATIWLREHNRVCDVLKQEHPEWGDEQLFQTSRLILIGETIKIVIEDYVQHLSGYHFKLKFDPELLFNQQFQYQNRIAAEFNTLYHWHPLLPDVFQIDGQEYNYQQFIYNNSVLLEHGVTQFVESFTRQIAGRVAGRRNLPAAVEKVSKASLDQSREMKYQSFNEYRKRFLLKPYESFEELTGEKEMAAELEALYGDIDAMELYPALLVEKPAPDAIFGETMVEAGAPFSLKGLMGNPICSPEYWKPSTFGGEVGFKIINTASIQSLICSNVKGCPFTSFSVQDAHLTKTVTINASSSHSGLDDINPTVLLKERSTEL
- experiment-summary: In vitro COX-2 enzyme inhibition assay (colorimetric kit)
- condition-info: COX-2 selectivity over COX-1
readout-type: SI, selectivity index (COX-1 IC50/COX-2 IC50)

[
  {
    "molecule": "COc1ccc2c(c1)c(CC(=O)Sc1ccccc1)c(C)n2C(=O)c1ccc(Cl)cc1",
    "system-under-test": "COX-2 (Ovis aries)",
    "result": ">227.3"
  },
  {
    "molecule": "CC(C(=O)SC1CCCCC1)c1cccc(C(=O)c2ccccc2)c1 (stereo not shown)",
    "system-under-test": "COX-2 (Ovis aries)",
    "result": ">75.8"
  },
  {
    "molecule": "CC(C(=O)SC1CCCCC1)c1ccc(-c2ccccc2)c(F)c1 (stereo not shown)",
    "system-under-test": "COX-2 (Ovis aries)",
    "result": ">72.5"
  },
  {
    "molecule": "O=C(Cc1ccccc1Nc1c(Cl)cccc1Cl)Sc1ccccc1",
    "system-under-test": "COX-2 (Ovis aries)",
    "result": ">200.0"
  },
  {
    "molecule": "CC1=C(CC(=O)Sc2ccccc2)c2cc(F)ccc2C1=Cc1ccc([S+](C)[O-])cc1 (stereo not shown)",
    "system-under-test": "COX-2 (Ovis aries)",
    "result": ">250.0"
  },
  {
    "molecule": "CC1=C(CC(=O)SC2CCCCC2)c2cc(F)ccc2C1=Cc1ccc([S+](C)[O-])cc1 (stereo not shown)",
    "system-under-test": "COX-2 (Ovis aries)",
    "result": ">83.3"
  },
  {
    "molecule": "COc1ccc2c(c1)c(CC(=O)SC1CCCCC1)c(C)n2C(=O)c1ccc(Cl)cc1",
    "system-under-test": "COX-2 (Ovis aries)",
    "result": ">102.0"
  }
]

====

Here the recorded melting point is given for each entry.

[
  {
    "compound": "COc1ccc2c(c1)c(CC(=O)Sc1ccccc1)c(C)n2C(=O)c1ccc(Cl)cc1",
    "melting point": "133 to 135 °C"
  },
  {
    "compound": "COc1ccc2cc(C(C)C(=O)Sc3ccccc3)ccc2c1 (stereo not shown)",
    "melting point": "115 to 117 °C"
  },
  {
    "compound": "CC(C(=O)Sc1ccccc1)c1ccc(-c2ccccc2)c(F)c1 (stereo not shown)",
    "melting point": "85 to 86 °C"
  },
  {
    "compound": "O=C(Cc1ccccc1Nc1c(Cl)cccc1Cl)SC1CCCCC1",
    "melting point": "88 to 90 °C"
  },
  {
    "compound": "O=C(Cc1ccccc1Nc1c(Cl)cccc1Cl)Sc1ccccc1",
    "melting point": "101 to 102 °C"
  },
  {
    "compound": "CC1=C(CC(=O)SC2CCCCC2)c2cc(F)ccc2C1=Cc1ccc([S+](C)[O-])cc1 (stereo not shown)",
    "melting point": "121 to 122 °C"
  },
  {
    "compound": "COc1ccc2c(c1)c(CC(=O)SC1CCCCC1)c(C)n2C(=O)c1ccc(Cl)cc1",
    "melting point": "97 to 98 °C"
  },
  {
    "compound": "CC(C(=O)SC1CCCCC1)c1ccc(-c2ccccc2)c(F)c1 (stereo not shown)",
    "melting point": "90 to 92 °C"
  },
  {
    "compound": "CC(C(=O)SC1CCCCC1)c1cccc(C(=O)c2ccccc2)c1 (stereo not shown)",
    "melting point": "69 to 70 °C"
  },
  {
    "compound": "CC(C(=O)Sc1ccccc1)c1cccc(C(=O)c2ccccc2)c1 (stereo not shown)",
    "melting point": "96 to 98 °C"
  },
  {
    "compound": "CC(=O)Oc1ccccc1C(=O)Sc1ccccc1 [4a, 2-[(Phenylthio)carbonyl]phenyl acetate]",
    "melting point": "72 to 73 °C"
  },
  {
    "compound": "COc1ccc2cc(C(C)C(=O)SC3CCCCC3)ccc2c1 (stereo not shown)",
    "melting point": "105 to 106 °C"
  },
  {
    "compound": "CC(=O)Oc1ccccc1C(=O)SC1CCCCC1",
    "melting point": "55 to 56 °C"
  }
]
